Test system: Hepatotoxicity
Assay: FDA HLAED, serum glutamic oxaloacetic transaminase (SGOT) increase
Settings: human

compound	SGOT Increase - Number of Reports
C[N+](C)(C)C[C@H](O)CC(=O)[O-]	< 4
C/C(=C\C(=O)OCCCCCCCCC(=O)O)C[C@@H]1OC[C@H](C[C@@H]2O[C@H]2[C@@H](C)[C@H](C)O)[C@@H](O)[C@H]1O	< 4
CC(O)(CS(=O)(=O)c1ccc(F)cc1)C(=O)Nc1ccc(C#N)c(C(F)(F)F)c1 (centres undefined) [BICALUTAMIDE]	>= 4
Fc1ccc([C@@H]2CCNC[C@H]2COc2ccc3c(c2)OCO3)cc1	>= 4
